- measurement.target: TDP-43 (Homo sapiens, UniProt Q13148 1-414)
- Sequence (Q13148 whole entry): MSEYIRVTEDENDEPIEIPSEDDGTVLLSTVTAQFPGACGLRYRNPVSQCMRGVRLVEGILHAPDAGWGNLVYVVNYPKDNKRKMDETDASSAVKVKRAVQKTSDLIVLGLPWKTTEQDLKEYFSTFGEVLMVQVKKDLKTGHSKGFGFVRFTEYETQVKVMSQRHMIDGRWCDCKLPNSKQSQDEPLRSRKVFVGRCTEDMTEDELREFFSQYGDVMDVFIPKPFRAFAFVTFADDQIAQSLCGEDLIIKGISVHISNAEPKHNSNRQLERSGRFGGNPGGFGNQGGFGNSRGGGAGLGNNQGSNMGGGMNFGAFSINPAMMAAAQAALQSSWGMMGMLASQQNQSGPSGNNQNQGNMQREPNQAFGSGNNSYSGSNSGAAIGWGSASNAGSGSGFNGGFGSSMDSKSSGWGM
- method.notes: RNA Bind-n-Seq with designed 260-mer pool; 25 mM Tris-HCl, 150 mM KCl, 3 mM MgCl2, BSA (printed 500 mg/mL), 20 units/mL SUPERase IN; pH not stated; 500 nM RNA pool, 1 h, 4 C; TDP-43 5, 50, 500 nM; high values mean tight binding
- condition.parameters: protein: recombinant; tags: SBP (GST cleaved off with PreScission; pGEX-GST-SBP)
Whole data set: some 9,900 sequences, median “r (bound/input frequency ratio)” near 0.7, cut for the highest 2% near 6.5. The sample as a whole holds a higher share of the highest values than the screen did.
measured.metric: binding signal

[ask] For ENSMUSG00000029636.163|Wasf3 (ssRNA) RNA: GGGAGUUCUACAGUCCGACGAUCGCUUCGAUAUCCGCAUGCUACAUGGAAGCUUGGCUUUAGCUGAGAGAUGCCACCAGCUGUUCACAACCCAUGGUGCUGUGGCUAGAUUCCUGCUCAGUCUCUCAAACAGGGCCACACCCCUCCUGAAGCACAGCUCUCUUCUCUCCUGUUGUCGGCACAUUUUCAAUUUUAAAAAGUACCUCACAAGAUAAACUUGAUUCAGCCAGUUGCCCGGGCAGAGACCUGACUUCCCCUCUCCUGCCCUGAUCCUUUUUACCAAAUGGCGAUUCCAUAGUCCUGGCUCUUGCGGUCGCACUAGUGUGGAAUUCUCGGGUGUCAAGG , what is its reported binding signal?
[reply] 0.217 R (bound/input frequency ratio)

[ask] Also check ENSMUSG00000061578.632|Ksr2|56:60;95:99 (ssRNA) RNA: GGGAGUUCUACAGUCCGACGAUCGCUUCGAUAUCCGCAUGCUAUAGAGGGGACGGACAGCUCCCUGACCCUGGAUGGCCAGGAAUGGUGCUAGCUAGGCACACAGCCAAGCCCUUGAGGCUACUGUGAGUUAUGAGAACACACCAACCCUCAGCCCACAGACUGCAUAUGCCCCAGGACAGCUGUGAAGGUGACCCAAUACAAAAUCGUAAACUAACUUAAAACCAUUAAGGGUUUUUGUUUUGUUGUUGUUUGCUGGCUUUUUGUUUUUUGGGUUGGUUUUCUUUUUCUUUCUUUCUUUUUUCUCUUGCGGUCGCACUAGUGUGGAAUUCUCGGGUGUCAAGG
[reply] 0.54 R (bound/input frequency ratio)
